test: chemical genetic growth profiling, strain panel (AID 1159580);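 also: tested at 20 µM; growth read once vehicle control cultures reached saturation at 30 °C; 1 = growth at the plate median or of vehicle wells; lower values mean less growth of the strain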; conditions: S. cerevisiae deletion strains, growth OD, locus YHR030C, strain SLT2, hits give low values
About 2,000 (36%) of roughly 5,500 compounds were called active. About 18% were inconclusive and are not listed. Some of the results follow.
property name: normalized growth
Kindly provide the number alone.

Example cases with answers are listed next.
Cc1nn(-c2ccccc2)nc1C(=O)NC(=O)N1CCCC1; 0.94
C/C(=N/NC(N)=S)c1ccccn1; 0.861
C=CC(=O)N1CCc2cc([N+](=O)[O-])ccc21; 0.253
FC(F)(F)c1ccnc(-n2ccc(-c3cccs3)n2)n1; 0.457

Quick check: normalized growth of `COc1ccc(NC(=O)O/N=C(/N)c2ccc(Oc3c(Cl)cncc3Cl)cc2)cc1` ?
0.71

What does the data say about its normalized growth? Entry: `CN(C)C=Nc1nc2c(s1)CCc1ccccc1-2`
0.477

Query (compound): `CCCCCCCCCCCCCCCCOP(=O)([O-])OCC[N+](C)(C)C` ; field requested: normalized growth
0.971

---

assay: chemical genetic growth profiling, strain panel (AID 1159580); details: S. cerevisiae deletion strains, growth OD, locus YEL061C, strain CIN8, hits give low values
The campaign covered roughly 5,500 compounds. About 2,000 (36%) were called active. About 18% were inconclusive and are not listed. The list shows a part of the results.
property name: normalized growth
Enter the number alone.

Example molecules with recorded normalized growth:
COc1ccccc1C1CCN(Cc2ccc3ccccc3c2)CC1; 0.915
COC(=O)COc1ccc(Cl)cc1Cl; 1

Please look up its normalized growth: `O=C(c1ccccc1)C1CCN(c2ccc(C(F)(F)F)cc2[N+](=O)[O-])CC1`
1

What value of normalized growth has been recorded for this entry: `CNc1ccccc1C(=O)N1CCc2c([nH]c3ccccc23)C1=O`
1.01

Name the reported normalized growth value associated with the molecule `CC(=O)/C(=C\Nc1ncccn1)S(=O)(=O)c1ccc(Cl)cc1`
1

What does the record list as normalized growth for COC1C(O)C(O)C(O)[C@@H](O)C1O (stereo partly specified) ?
1.01

# lookup: normalized growth of `CC[C@@H](CO)NCCN[C@@H](CC)CO`
1.01

Fill in: normalized growth of CCCCCC(C)N (stereo unspecified) is ___
1.01

What normalized growth value was documented for this molecule, `Cc1cc(C)c2c(-n3cccc3)c(C(=O)c3ccc(Cl)cc3)sc2n1` ?
1

Consider the molecule shown here: CCc1cccc(C)c1N(C(=O)CCl)C(C)COC (stereo unspecified) What is its recorded normalized growth?
1.01

Would you mind telling me what normalized growth value was observed for `OCc1ccccc1O[C@@H]1O[C@H](CO)[C@@H](O)[C@H](O)[C@H]1O` ?
0.978

Tell me the measured normalized growth of `O=c1ccc2cc(O)c(O)cc2o1` , please.
1.01

Find the recorded normalized growth belonging to `COC(=O)COc1cc(Cl)c(Cl)cc1Cl` and report it.
0.98

Would you kindly share the measured normalized growth for `CC1(C)/C(=N/OC(=O)c2cccc(C(F)(F)F)c2)[C@]2(C)CCC1C2` ?
1.04

What value of normalized growth has been recorded for this entry: C[N+](C)(C)CCOP(=O)([O-])OP(=O)(O)OC[C@H]1OC(n2ccc(N)nc2=O)[C@H](O)[C@@H]1O (stereo partly specified)
0.996

So what's the measured normalized growth for this one? CNC1(C)C2CCC(C2)C1(C)C (stereo unspecified)
0.982

Return reported normalized growth; argument: `O=C(/C=C/C=C/c1ccc2c(c1)OCO2)N1CCCCC1`
0.971

Reported normalized growth, molecule `C1CCc2nnnn2CC1` : ____
1.01

---

assay: chemical genetic growth profiling, strain panel (AID 1159580);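 also: tested at 20 µM; growth read once vehicle control cultures reached saturation at 30 °C; 1 = growth at the plate median or of vehicle wells; lower values mean less growth of the strain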; conditions: S. cerevisiae deletion strains, growth OD, locus YHR013C, strain ard1
About 2,000 (36%) of roughly 5,500 compounds were called active. Another 18% or so got no clear call; they are omitted. Cut-off read from the data, not from the text of the source: active = normalized growth mostly below about 0.91 (no sharp cut-off); inconclusive = no clear call, values can overlap the other calls; inactive = mostly above about 0.92. Some of the results follow.
Parameter call: string, one of Yes for active, No for inactive

Answered cases to consult:
COc1ccc2c(c1)OC[C@@H](Cc1ccc(OC)c(OC)c1)[C@H]2O; No
COc1ccc2c(c1)[C@@]1(C)CCC(=O)C[C@H]1CC2; No
COc1ccc2c(c1)C1(C)CCC(=O)CC1CC2 (stereo not drawn); No
Cn1cc[nH]c1=S; No
COc1cc(OC)c2c(c1)O[C@H](c1ccc(OC)c(OC)c1)[C@@H](O)C2; No
C=CC1=C(C(=O)O)N2C(=O)[C@@H](NC(=O)/C(=N/O)c3csc(N)n3)[C@H]2SC1; No
Cc1ccc2c(c1)CC[C@H]1CC(=O)CC[C@]21C; No

Record request — test call for `COc1ccc(C(=O)c2ccccc2O)c(O)c1`
Yes

---

Listed here are compounds together with their documented normalized growth.
assay: chemical genetic growth profiling, strain panel (AID 1159580);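 also: tested at 20 µM; growth read once vehicle control cultures reached saturation at 30 °C; 1 = growth at the plate median or of vehicle wells; lower values mean less growth of the strain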; details: S. cerevisiae deletion strains, growth OD, locus YPL153C, strain RAD53, hits give low values
Screen size: about 5,500 compounds; about 2,000 (36%) were called active. Inconclusive results (about 18%) are left out. Some of the results follow.
Give the figure by itself; no unit, no explanation.

Completed entries (count: 6):
CCC(C)c1ccccc1NC(=O)c1cc2cccc([N+](=O)[O-])c2[nH]1 (stereo not drawn); 0.723
Cc1c(Cl)cccc1NC(=S)N1CCCN(c2ccc(C(F)(F)F)cc2[N+](=O)[O-])CC1; 1
Cc1c(Cl)cccc1NC(=S)N1CCCN(c2nc3ccc(Cl)cc3s2)CC1; 0.908
O=C(CCN1CCCCC1)c1ccc(-c2ccccc2)cc1; 0.872
Cn1cncc1S(=O)(=O)/C(C#N)=C/c1ccccc1Sc1ccc(Cl)cc1; 0.798
O=C(Nc1c(Br)c(C2CC2)nn1-c1ccccc1)C(Cl)(Cl)Cl; 0.82

Return reported normalized growth; argument: `O=C(C=C(O)c1ccc(Br)cc1)C(=O)Nc1ccccc1`
0.103

Requested field: normalized growth. Item: `N#C/C(=N/Nc1ccccc1Cl)S(=O)(=O)c1ccc(Cl)cc1`
0.889

Returns the measured normalized growth for the input compound. Input: `S=C(Nc1cc(-c2cccs2)[nH]n1)Nc1ccccc1Cl`
0.804

Given the compound `Cc1cc(SCc2[nH]nc3oc(=O)cc(C)c23)c(Cl)cc1Cl` , what is its reported normalized growth?
0.987

# lookup: normalized growth of `O=[N+]([O-])c1cc(C(F)(F)F)ccc1-n1ccc(-c2cccs2)n1`
0.92

# input compound: `COc1ccc(NC(=O)O/N=C(/N)c2ccc(Oc3c(Cl)cncc3Cl)cc2)cc1` ; wanted: its normalized growth
0.728

Given the entry `C/C(=N/NC(N)=S)c1ccc(Oc2c(Cl)cncc2Cl)cc1` , report its measured normalized growth.
0.953

---

assay: chemical genetic growth profiling, strain panel (AID 1159580);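 also: tested at 20 µM; growth read once vehicle control cultures reached saturation at 30 °C; 1 = growth at the plate median or of vehicle wells; lower values mean less growth of the strain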; details: S. cerevisiae deletion strains, growth OD, locus YJL095W, strain BCK1 (second series)
Hit rate of the full screen: of about 5,500 compounds, about 2,000 (36%) were called active. Not shown: some 18% with an inconclusive outcome. Cut-off read from the data, not from the text of the source: active = normalized growth mostly below about 0.91 (no sharp cut-off); inconclusive = no clear call, values can overlap the other calls; inactive = mostly above about 0.92. This is one part of the list.
Your reply should match one of these outcome classes. active, inactive

Some entries whose results are on file:
COc1ccc2c(c1)OC[C@@H](Cc1ccc(OC)c(OC)c1)[C@@H]2O; inactive
CC[C@@H](CO)NCCN[C@@H](CC)CO; inactive
CCCCOc1ccc(CC(=O)NO)cc1; inactive
CC(C)(N=NC(C)(C)C(=N)N)C(=N)N; inactive
COc1ccc(C(=O)c2ccccc2)c(O)c1; active
Cc1c(N(C)C)c(=O)n(-c2ccccc2)n1C; inactive
OC(CCN1CCCCC1)(c1ccccc1)c1ccccc1; inactive
COC(=O)C1[C@H]2C[C@H]3c4[nH]c5ccccc5c4CCN3C[C@@H]2CC[C@@H]1O (stereo partly specified); inactive
COc1ccc(C[C@H]2NC[C@H](O)[C@H]2OC(C)=O)cc1; active
C1CCc2nnnn2CC1; inactive

Which outcome was entered for the compound `COc1ccc(C(=O)c2ccccc2O)c(O)c1` in this test?
active

Per the records of this test, what outcome belongs to OCC(O)Cc1ccc2c(c1)OCO2 (stereo unspecified) ?
inactive

What outcome does the record of this test show for CN1CCCC(n2nc(Cc3ccc(Cl)cc3)c3ccccc3c2=O)CC1 (stereo unspecified) ?
inactive

How was `Cc1cc(=O)c2c(O)c(C)c(O)cc2o1` classified in this test?
inactive

Look up the recorded call for CC(=O)O[C@@](C)(CCC=C(C)C)C1CC=C(C)CC1 (stereo partly specified) in this test.
inactive

Dear colleague, could you share the recorded outcome for `NC(N)=NOCC[C@H](N)C(=O)O` when you have a moment?
inactive

So what was the verdict on `O=C(O)COc1cc(Cl)c(Cl)cc1Cl` in this test?
inactive

// outcome(item) with item = `C=CCc1ccc2c(c1)OCO2`
inactive

Outcome logged for `COc1ccc(-c2coc3c(OC)c(OC)cc(O)c3c2=O)cc1` in this assay:
inactive

Write down the call the test reported for this compound. Item: CC1(C)C2CC[C@]3(C)C(C(=O)C=C4[C@@H]5C[C@@](C)(C(=O)O)CC[C@]5(C)CC[C@]43C)[C@@]2(C)CC[C@@H]1OC(=O)CCC(=O)O (stereo partly specified)
inactive

Tell me the assay call for `CCCCOc1ccc(C(=O)CCN2CCCCC2)cc1` please.
active
